Assay: Photochromic response of test squares on optical bench (sensitivity, saturation optical density, bleach rate)
Assay type: physicochemical
Details: time for absorbance of activated form to reach one half the highest absorbance at room temperature (72° F., 22.2° C.) after removal of activating light
Procedure: Testing was done with the photochromic compounds described in Examples 1 through 4 and Comparative Examples 1 through 3 in the following manner. A quantity of photochromic compound calculated to yield a 1.5×10-3 molal solution was added to a flask containing 50 grams of a monomer blend of 4 parts ethoxylated bisphenol A dimethacrylate (BPA 2EO DMA), 1 part poly(ethylene glycol) 600 dimethacrylate, and 0.033 weight percent 2,2'-azobis(2-methyl propionitrile) (AIBN). […]
Bleach Rate (T 1/2) below 4 min gives no (0); Bleach Rate (T 1/2) at or above it gives yes (1).

Examples from the recorded data:
>  <Molecule>
COC(=O)c1c2c(c3ccccc3c1OC)OC(c1ccc(OC)cc1)(c1ccc(OC)cc1)C=C2 [CE1, reference compound]

>  <Class Assignment>
no (0)

$$$$
>  <Molecule>
COCCOCCOC(=O)c1c2c(c3ccccc3c1-c1ccccc1)OC(c1ccccc1)(c1ccccc1)C=C2

>  <Class Assignment>
no (0)

$$$$
>  <Molecule>
COC(=O)c1c2c(c3ccccc3c1C)OC(c1ccccc1)(c1ccccc1)C=C2 [CE3, reference compound]

>  <Class Assignment>
yes (1)

$$$$
>  <Molecule>
COCCOCCOCCOC(=O)c1c2c(c3ccccc3c1C)OC(c1ccccc1)(c1ccccc1)C=C2

>  <Class Assignment>
yes (1)

$$$$

State whether the measured Bleach Rate (T 1/2) reaches 4 min, counting equality as reaching it, for "COCCOCCOCCOC(=O)c1c2c(c3ccccc3c1-c1ccccc1)OC(c1ccccc1)(c1ccccc1)C=C2"
no (0)

Do the same for COC(=O)c1c2c(c3ccccc3c1-c1ccccc1)OC(c1ccccc1)(c1ccccc1)C=C2 [CE2, reference compound] please
no (0)

* * *

assay: UV-Visible absorption (lambda max) of photochromic test square polymerizates in Varian Cary 3 UV-Visible spectrophotometer; type: physicochemical; settings: maximum absorption of the activated (colored) form in the visible spectrum; test square, 1.5×10-3 molal
Reported Endpoint: (λ) max (VIS) (nm)
Answer format: numeric, nm implied, no suffix.

Check out these entries, answers already filled in.
>  <Molecule>
COCCOCCOC(=O)c1c2c(c3ccccc3c1-c1ccccc1)OC(c1ccccc1)(c1ccccc1)C=C2

>  <(λ) max (VIS) [nm]>
486

$$$$
>  <Molecule>
COC(=O)c1c2c(c3ccccc3c1OC)OC(c1ccc(OC)cc1)(c1ccc(OC)cc1)C=C2 [CE1, reference compound]

>  <(λ) max (VIS) [nm]>
512

$$$$
>  <Molecule>
COC(=O)c1c2c(c3ccccc3c1-c1ccccc1)OC(c1ccccc1)(c1ccccc1)C=C2 [CE2, reference compound]

>  <(λ) max (VIS) [nm]>
486

$$$$
>  <Molecule>
COC(=O)c1c2c(c3ccccc3c1C)OC(c1ccccc1)(c1ccccc1)C=C2 [CE3, reference compound]

>  <(λ) max (VIS) [nm]>
476

$$$$
>  <Molecule>
COCCOCCOCCOC(=O)c1c2c(c3ccccc3c1C)OC(c1ccccc1)(c1ccccc1)C=C2

>  <(λ) max (VIS) [nm]>
475

$$$$

Shifting focus to the molecule that follows.
Name the recorded (λ) max (VIS) for "COCCOCCOCCOC(=O)c1c2c(c3ccccc3c1-c1ccccc1)OC(c1ccccc1)(c1ccccc1)C=C2" .
486
